TESTED SYSTEM: interaction of the DH domain of AKAP-Lbc and RhoA (Homo sapiens)
Construct: The proteins used were N-terminally His6-tagged AKAP-Lbc-DH domain
Sequence (P61586 whole entry, the tested form may be a part): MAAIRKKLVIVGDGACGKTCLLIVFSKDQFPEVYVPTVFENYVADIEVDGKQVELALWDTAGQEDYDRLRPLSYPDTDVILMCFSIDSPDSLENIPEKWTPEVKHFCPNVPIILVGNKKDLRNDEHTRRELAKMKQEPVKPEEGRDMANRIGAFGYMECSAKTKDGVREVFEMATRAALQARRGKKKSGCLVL
TEST: Alpha screen assay
ENDPOINT NAME: IC50 (µM)
Could you give me the number in µM? Just the number is fine.

"COc1ccc(-c2coc3cc4oc(=O)c(CCC(=O)O)c(C)c4cc23)cc1" tested on interaction of the DH domain of AKAP-Lbc and RhoA (Homo sapiens) gave IC50: 42

* * *

Give IC50 for every item shown.
TESTED SYSTEM: interaction of AKAP-Lbc/DHPH and RhoA (Homo sapiens)
Construct: His6-AKAP-Lbc/DHPH (aa 1972–2342 of human AKAP-Lbc; NP_006729.4); made in house
TEST: Homogeneous time-resolved fluorescence (HTRF) assay
Type: binding
CONDITION SUMMARY: Table 1; HTRF; '-' = no IC50, inactive (n.d. is used separately in S3 Table); read-out: IC50 ± SEM

GET /value?item= "Cc1c(CCC(=O)O)c(=O)oc2cc3occ(-c4ccncc4)c3cc12" &field=IC50 returns > 200 µM

GET /value?item= "COc1ccc(-c2coc3cc4oc(=O)c(CCC(=O)NO)c(C)c4cc23)cc1" &field=IC50 returns > 200 µM

GET /value?item= "COC(=O)CCc1c(C)c2cc3c(-c4ccc(OC)cc4)coc3cc2oc1=O" &field=IC50 returns > 200 µM

GET /value?item= "Cc1c(C)c2cc3c(-c4ccc(-c5ccccc5)cc4)coc3cc2oc1=O" &field=IC50 returns > 200 µM

GET /value?item= "Cc1c(CCC(=O)O)c(=O)oc2cc3occ(-c4ccccc4)c3cc12" &field=IC50 returns 66.7 µM

* * *

TEST: Nephelometric solubility
Type: physicochemical
CONDITION SUMMARY: DMEM + 10 % FCS, plasma or biological fluid, kinetic from dmso stock, maximal solubility in DMEM + 10 % FCS, 0.3 % DMSO final; read-out: Solubility 0.3 % DMSO
Give solubility for every item shown.

GET /value?item= COc1cccc(-c2ccc(C(=O)COc3ccc4c(C)c(CCC(=O)O)c(=O)oc4c3)cc2)c1 [Scaff10-63] &field=solubility returns 75 µM

GET /value?item= COc1ccc(-c2coc3cc4oc(=O)c(C)c(C)c4cc23)cc1 [Scaff10] &field=solubility returns 75 µM

GET /value?item= Cc1nc(-c2ccc(F)cc2)ccc1C(=O)COc1ccc2c(C)c(C)c(=O)oc2c1 [Scaff10-4] &field=solubility returns > 150 µM

GET /value?item= Cc1c(C)c2cc3c(-c4cccnc4)coc3cc2oc1=O [Scaff10-3] &field=solubility returns > 150 µM

GET /value?item= COc1ccc2cc(-c3coc4cc5oc(=O)c(CCC(=O)O)c(C)c5cc34)ccc2c1 [Scaff10-44] &field=solubility returns 40 µM

GET /value?item= COc1ccc(-c2coc3cc4oc(=O)c(CC(=O)O)c(C)c4cc23)cc1 [Scaff10-49] &field=solubility returns > 150 µM

GET /value?item= COc1ccc(-c2coc3cc4oc(=O)c(CCC(=O)NCC(=O)O)c(C)c4cc23)cc1 [Scaff10-61] &field=solubility returns > 150 µM

GET /value?item= CCOC(=O)CCc1c(C)c2ccc(OCc3ccc(OC)cc3)cc2oc1=O [Scaff10-59] &field=solubility returns 40 µM

GET /value?item= COc1ccc(-c2coc3c(C)c4oc(=O)c(CCC(=O)O)c(C)c4cc23)cc1 [Scaff10-50] &field=solubility returns > 150 µM

GET /value?item= Cc1c(C)c2ccc(OCC(=O)c3cccnc3)cc2oc1=O [Scaff10-2] &field=solubility returns 75 µM

GET /value?item= CCOC(=O)CCc1c(C)c2ccc(OCC(=O)c3ccc(OC)cc3)cc2oc1=O [Scaff10-7] &field=solubility returns 40 µM

GET /value?item= Cc1c(CCC(=O)O)c(=O)oc2cc3occ(-c4ccccc4)c3cc12 [Scaff10-58] &field=solubility returns > 150 µM

GET /value?item= COc1ccc(-c2coc3cc4oc(=O)c(CCC(=O)O)c(C)c4cc23)cc1 [Scaff10-8] &field=solubility returns 30 µM

GET /value?item= Cc1c(CCC(=O)O)c(=O)oc2cc3occ(-c4ccc(Oc5ccccc5)cc4)c3cc12 [Scaff10-38] &field=solubility returns > 150 µM

GET /value?item= Cc1nc(-c2ccc(F)cc2)ccc1-c1coc2cc3oc(=O)c(C)c(C)c3cc12 [Scaff10-5] &field=solubility returns > 150 µM

GET /value?item= COc1ccc(C(=O)COc2ccc3c(C)c(CCC(=O)O)c(=O)oc3c2)cc1 [Scaff10-6] &field=solubility returns > 150 µM

GET /value?item= Cc1c(CCC(=O)O)c(=O)oc2cc(OCC(=O)c3ccc(-c4ccccc4)cc3)ccc12 [Scaff10-40] &field=solubility returns 10 µM

GET /value?item= COc1cccc(-c2ccc(-c3coc4cc5oc(=O)c(CCC(=O)O)c(C)c5cc34)cc2)c1 [Scaff10-64] &field=solubility returns > 150 µM

GET /value?item= COc1ccc(-c2coc3cc4oc(=O)ccc4cc23)cc1 [Scaff10-1] &field=solubility returns 40 µM

Origin of the recorded values: paper PMC5786306
